Target: 5-hydroxytryptamine receptor 2B (Homo sapiens, UniProt P41595)
Sequence (P41595 whole entry): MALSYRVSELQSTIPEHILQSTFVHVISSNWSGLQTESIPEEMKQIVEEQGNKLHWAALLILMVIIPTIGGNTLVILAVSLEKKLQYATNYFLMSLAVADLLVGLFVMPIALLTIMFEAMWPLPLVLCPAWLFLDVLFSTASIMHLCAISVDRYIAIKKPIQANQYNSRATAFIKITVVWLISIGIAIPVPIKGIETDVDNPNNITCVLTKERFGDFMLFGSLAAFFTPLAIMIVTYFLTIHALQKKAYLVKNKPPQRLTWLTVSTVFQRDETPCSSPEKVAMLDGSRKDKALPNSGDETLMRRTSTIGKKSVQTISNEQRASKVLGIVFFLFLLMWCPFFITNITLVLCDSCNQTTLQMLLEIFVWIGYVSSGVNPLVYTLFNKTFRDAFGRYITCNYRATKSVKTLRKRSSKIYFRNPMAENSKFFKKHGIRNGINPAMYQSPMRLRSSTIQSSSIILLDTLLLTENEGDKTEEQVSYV
pKi: −log10 of the molar value.
RECORDED ENDPOINT: pKi

So what's the measured pKi for this one? N#Cc1cc(F)cc(C#Cc2csc(F)n2)c1
< 5.00

* * *

Target chain: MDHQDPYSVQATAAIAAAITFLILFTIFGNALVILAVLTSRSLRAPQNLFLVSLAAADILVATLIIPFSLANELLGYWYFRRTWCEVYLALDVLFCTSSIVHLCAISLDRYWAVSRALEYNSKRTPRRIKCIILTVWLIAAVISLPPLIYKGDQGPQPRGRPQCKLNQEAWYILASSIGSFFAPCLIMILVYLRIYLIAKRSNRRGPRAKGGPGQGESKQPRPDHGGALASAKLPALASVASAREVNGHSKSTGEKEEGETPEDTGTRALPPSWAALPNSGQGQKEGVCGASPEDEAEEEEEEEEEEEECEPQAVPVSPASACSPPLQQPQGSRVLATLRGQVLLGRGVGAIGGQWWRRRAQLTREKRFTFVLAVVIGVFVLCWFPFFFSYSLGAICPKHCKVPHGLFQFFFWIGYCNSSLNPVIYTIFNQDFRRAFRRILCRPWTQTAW
RECORDED ENDPOINT: Ki

So what's the measured Ki for this one? N#Cc1cc(F)cc(C#Cc2csc(F)n2)c1
> 10 µM

* * *

Biological target: Beta-2 adrenergic receptor (Homo sapiens)
Sequence (P07550 whole entry): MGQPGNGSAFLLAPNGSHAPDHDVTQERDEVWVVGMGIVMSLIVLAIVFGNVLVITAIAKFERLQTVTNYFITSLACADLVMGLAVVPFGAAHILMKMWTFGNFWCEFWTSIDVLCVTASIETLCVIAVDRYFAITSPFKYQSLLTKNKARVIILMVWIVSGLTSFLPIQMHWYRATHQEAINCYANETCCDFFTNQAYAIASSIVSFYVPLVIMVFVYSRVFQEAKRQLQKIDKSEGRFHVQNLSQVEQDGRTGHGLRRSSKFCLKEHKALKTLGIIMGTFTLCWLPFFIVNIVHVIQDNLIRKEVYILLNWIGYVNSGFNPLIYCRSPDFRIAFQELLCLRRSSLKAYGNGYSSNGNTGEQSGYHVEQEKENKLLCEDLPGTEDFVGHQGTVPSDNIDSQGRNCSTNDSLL
RECORDED ENDPOINT: Ki

Identify the measured Ki of N#Cc1cc(F)cc(C#Cc2csc(F)n2)c1 for Beta-2 adrenergic receptor (Homo sapiens).
> 10 µM

* * *

Sequence of the target: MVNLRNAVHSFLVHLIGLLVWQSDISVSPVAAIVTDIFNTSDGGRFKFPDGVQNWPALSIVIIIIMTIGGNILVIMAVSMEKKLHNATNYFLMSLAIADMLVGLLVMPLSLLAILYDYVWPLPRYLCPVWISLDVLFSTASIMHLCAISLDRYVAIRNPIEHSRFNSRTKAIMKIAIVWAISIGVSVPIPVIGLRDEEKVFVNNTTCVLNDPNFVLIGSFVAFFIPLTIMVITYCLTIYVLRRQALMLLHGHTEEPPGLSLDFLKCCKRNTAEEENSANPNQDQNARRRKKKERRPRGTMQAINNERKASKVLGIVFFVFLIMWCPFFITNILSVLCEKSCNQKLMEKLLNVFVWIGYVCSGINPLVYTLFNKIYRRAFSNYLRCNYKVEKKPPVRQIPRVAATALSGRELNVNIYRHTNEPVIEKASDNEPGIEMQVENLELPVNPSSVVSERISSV
RECORDED ENDPOINT: Ki

So what's the measured Ki for this one? N#Cc1cc(F)cc(C#Cc2csc(F)n2)c1
> 10 µM

* * *

Target chain: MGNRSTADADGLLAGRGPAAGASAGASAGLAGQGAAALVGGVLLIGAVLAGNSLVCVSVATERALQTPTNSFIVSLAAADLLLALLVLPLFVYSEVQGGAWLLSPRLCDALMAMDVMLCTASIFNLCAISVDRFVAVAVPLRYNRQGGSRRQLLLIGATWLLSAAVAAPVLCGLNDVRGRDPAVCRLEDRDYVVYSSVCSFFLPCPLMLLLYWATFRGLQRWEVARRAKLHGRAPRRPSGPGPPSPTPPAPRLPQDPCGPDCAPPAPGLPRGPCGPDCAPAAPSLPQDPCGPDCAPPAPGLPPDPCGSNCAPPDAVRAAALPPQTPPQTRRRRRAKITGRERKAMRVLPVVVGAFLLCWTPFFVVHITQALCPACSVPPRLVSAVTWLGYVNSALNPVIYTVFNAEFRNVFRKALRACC
pKi: −log10 of the molar value.
RECORDED ENDPOINT: pKi

So what's the measured pKi for this one? N#Cc1cc(F)cc(C#Cc2csc(F)n2)c1
< 5.00
